system: β-Glucosidase (P. chrysosp.) (Phanerodontia chrysosporium, UniProt O74203)
Sequence (O74203 22-823): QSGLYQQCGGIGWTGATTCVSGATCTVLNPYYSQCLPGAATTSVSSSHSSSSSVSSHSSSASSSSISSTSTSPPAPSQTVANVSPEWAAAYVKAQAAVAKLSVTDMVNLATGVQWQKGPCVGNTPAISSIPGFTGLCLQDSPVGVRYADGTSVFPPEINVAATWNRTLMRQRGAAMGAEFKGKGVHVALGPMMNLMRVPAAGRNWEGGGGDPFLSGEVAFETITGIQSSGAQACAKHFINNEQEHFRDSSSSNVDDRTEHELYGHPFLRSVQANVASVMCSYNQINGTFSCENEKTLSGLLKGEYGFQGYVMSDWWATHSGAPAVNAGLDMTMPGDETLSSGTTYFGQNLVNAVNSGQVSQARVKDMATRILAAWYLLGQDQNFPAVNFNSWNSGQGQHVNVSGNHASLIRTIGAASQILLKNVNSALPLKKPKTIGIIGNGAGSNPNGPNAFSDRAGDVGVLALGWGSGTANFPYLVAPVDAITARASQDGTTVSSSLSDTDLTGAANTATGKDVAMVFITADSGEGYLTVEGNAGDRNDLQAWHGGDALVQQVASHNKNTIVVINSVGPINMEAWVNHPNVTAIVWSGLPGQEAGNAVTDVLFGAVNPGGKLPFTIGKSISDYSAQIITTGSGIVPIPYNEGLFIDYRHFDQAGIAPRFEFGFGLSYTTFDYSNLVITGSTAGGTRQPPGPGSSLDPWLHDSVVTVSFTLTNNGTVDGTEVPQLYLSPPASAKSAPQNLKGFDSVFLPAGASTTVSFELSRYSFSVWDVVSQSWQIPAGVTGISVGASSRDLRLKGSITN
protocol_notes: 4-nitrophenyl β-D-glucopyranoside hydrolysis, absorbance […] nm
Format: biochemical
assay_conditions: read-out: 12; pH 6.0, 37 °C, phosphate buffer, 10% DMSO
experimental_readout: Ki (nM)
Expressed in nM, but write only the number.

# query: Ki of entry `OC[C@@H]1[C@@H](O)[C@H](O)[C@@H](O)CN1CCc1c2ccccc2c(Cl)c2ccccc12`
6.2

====

system: α-Glucosidase (A. niger) (Aspergillus niger, UniProt P56526)
Sequence (P56526 26-985): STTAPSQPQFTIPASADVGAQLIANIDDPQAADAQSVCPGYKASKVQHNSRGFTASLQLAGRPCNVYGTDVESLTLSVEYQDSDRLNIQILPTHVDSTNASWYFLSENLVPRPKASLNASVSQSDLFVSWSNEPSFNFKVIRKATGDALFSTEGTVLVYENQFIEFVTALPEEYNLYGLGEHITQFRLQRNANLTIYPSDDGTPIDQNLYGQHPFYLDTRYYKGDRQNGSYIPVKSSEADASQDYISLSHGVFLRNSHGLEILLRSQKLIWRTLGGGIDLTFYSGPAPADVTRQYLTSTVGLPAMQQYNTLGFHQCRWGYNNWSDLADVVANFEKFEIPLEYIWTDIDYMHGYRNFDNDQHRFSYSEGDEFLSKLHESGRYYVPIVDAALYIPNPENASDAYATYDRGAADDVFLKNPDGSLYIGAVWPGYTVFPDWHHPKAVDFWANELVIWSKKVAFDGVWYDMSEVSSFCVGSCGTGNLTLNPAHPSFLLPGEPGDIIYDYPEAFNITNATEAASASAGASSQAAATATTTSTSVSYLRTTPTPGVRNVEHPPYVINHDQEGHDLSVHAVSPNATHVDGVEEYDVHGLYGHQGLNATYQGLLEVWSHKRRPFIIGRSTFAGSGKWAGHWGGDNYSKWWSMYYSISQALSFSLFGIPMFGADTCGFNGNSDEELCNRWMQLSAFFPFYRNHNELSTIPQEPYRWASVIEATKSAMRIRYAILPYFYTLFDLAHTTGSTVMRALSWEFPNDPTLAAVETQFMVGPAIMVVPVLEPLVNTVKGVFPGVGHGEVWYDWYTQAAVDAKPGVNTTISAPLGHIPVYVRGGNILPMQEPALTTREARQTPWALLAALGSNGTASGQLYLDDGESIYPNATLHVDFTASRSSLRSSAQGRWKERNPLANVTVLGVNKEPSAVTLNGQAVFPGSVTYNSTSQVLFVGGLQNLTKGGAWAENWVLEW
Reported Ki by item:
Note to self: number, then unit, no commentary.

>  <chem_smiles>
OC[C@@H]1[C@@H](O)[C@H](O)[C@@H](O)CN1Cc1c2ccccc2c(Cl)c2ccccc12

>  <system>
α-Glucosidase (A. niger) (Aspergillus niger, UniProt P56526)

>  <observed_result>
1.04 µM

$$$$

# query: Ki of entry `O=C1[C@H](O)[C@@H](O)[C@H](O)[C@@H](CO)N1Cc1c2ccccc2c(Cl)c2ccccc12`
14.4 µM
